Each recorded value in this set is attributed to PubChem BioAssay.

Consider the following molecules; for each one, report its viability.
assay: reducers of endogenous Her2 protein level, primary screen, SKBR3 breast tumor cells, AlphaScreen, ATP viability (AID 461); settings: 18-24 h, measured here: SKBR3 viability, ATP luminescence, at 10 µM;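 also: percent of carrier control wells set as 100% viability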
Give bare numbers, in %.

{"Structure String": "O=C(Nc1cccnc1)c1cccc(NC(=O)c2ccco2)c1", "Scale Unit": "%", "Observed Measurement": 97.5}
{"Structure String": "O=C(NCc1cccnc1)c1ccccc1Br", "Scale Unit": "%", "Observed Measurement": 110}
{"Structure String": "CCOC(=O)c1oc2ccccc2c1NC(=O)COC", "Scale Unit": "%", "Observed Measurement": 108}

Please supply viability for each of the following items, keeping them in order.
1. Fc1ccccc1-c1nc(-c2ccccc2)no1
2. Cc1c(Br)c(C(F)(F)F)nn1CC(=O)NCCN1CCOCC1
3. Cc1csc2nc(CSc3nc4ccccc4o3)c(Br)n12
4. CCOc1ccc(Oc2nc(Nc3ccc(C)cc3)nc(N(C)C)n2)nn1

-- reply
85.5
122
84.5
85.5

---

experiment: HUVEC growth inhibition – cell-based, human, primary screen (AID 575); details: HUVEC proliferation, CellTiter-Glo luminescence, 72 h; at 10 µM; stronger effect = lower value;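 also: 100% = median of untreated cell wells with 0.1% DMSO on each plate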
For each record, check the reported viability: if it is below 90% write true (1), else write false (0).

{"Compound": "CC1=C(C(=O)NC2CCCC(C)C2C)C2(CCCCC2)OC1=O (stereo not given)", "Class Name": "false (0)"}
{"Compound": "O=C(OCC(=O)N1CCCCCC1)c1cccs1", "Class Name": "false (0)"}
{"Compound": "CCOc1ccc2c(c1)sc1nc(C(=O)OC)cc(=O)n12", "Class Name": "false (0)"}
{"Compound": "CCCn1c(SCC(=O)N2CCCc3ccccc32)nnc1-c1ccccn1", "Class Name": "false (0)"}

Now consider the entry below.
-- ask Regarding COc1ccc(-c2noc(-c3ccccc3C(=O)Nc3cccnc3)n2)cc1OC , kindly confirm whether its viability is beneath 90%.
-- reply true (1)

---

experiment: reversal of MRP1-mediated doxorubicin resistance, pilot screen, H69AR cells, doxorubicin co-treatment (AID 601); details: H69AR cells + 2 uM doxorubicin, CellTiter-Glo, 72 h; measured here: viability with 2 uM doxorubicin; at 10 µM; stronger effect = lower value
Property: viability (%)
Give bare numbers, in %.

{"Compound": "Cc1ccc2c(CNCc3ccco3)cc(=O)oc2c1", "Scale Unit": "%", "viability": 81.9}
{"Compound": "CN1C(=O)NC(NC(=O)C2CCCCC2)(C(F)(F)F)C1=O (stereo not drawn)", "Scale Unit": "%", "viability": 99.8}
{"Compound": "Cn1c2c(c(=O)n(C)c1=O)C(CC(=O)Nc1ccccc1)C(=O)N2 (stereo not drawn)", "Scale Unit": "%", "viability": 86.4}
{"Compound": "O=C(OCCCCN1C(=O)c2ccccc2C1=O)c1n[nH]c2ccccc12", "Scale Unit": "%", "viability": 94.9}
{"Compound": "Cn1c(=O)c2c(nc(NCCc3ccccc3)n2CC(=O)NCCc2ccccc2)n(C)c1=O", "Scale Unit": "%", "viability": 70.2}
{"Compound": "c1ccc(-n2ncc3c(N4CCCCC4)ncnc32)cc1", "Scale Unit": "%", "viability": 65.1}

Please supply viability for each of the following items, keeping them in order.
1. CCC(C)NC(=O)c1ccccc1NC(=O)C(C)N(c1ccccc1)S(C)(=O)=O (stereo not drawn)
2. COc1ccc(Cc2nn3c(-c4cc(OC)c(OC)c(OC)c4)nnc3s2)cc1

-- reply
1. 102
2. 69.9

Please supply viability for each of the following items, keeping them in order.
1. COC(=O)c1ccc(COc2ncnc3c(Cl)cc(Cl)cc23)o1
2. Brc1ccc(-c2cn3cccnc3n2)cc1
3. COc1cccc(-n2nc(C(=O)Nc3ccc4c(c3)OCO4)c3ccccc3c2=O)c1
4. Nc1ncnc2nc(SCCN3CCCCC3)[nH]c12

-- reply
[67.4, 97.1, 86.3, 97.3]

---

assay: reversal of MRP1-mediated doxorubicin resistance, pilot screen, H69AR cells, doxorubicin co-treatment (AID 601); settings: H69AR cells + 2 uM doxorubicin, CellTiter-Glo, 72 h; measured here: viability with 2 uM doxorubicin; at 10 µM; stronger effect = lower value
Property: viability (%)
Give bare numbers, in %.

{"Compound": "CC(C)CC(c1nnnn1C1CCCC1)N1CCN(c2ccccc2F)CC1 (stereo not drawn)", "viability (%)": 91.9}
{"Compound": "CC(NS(=O)(=O)c1ccc(F)cc1)C(c1cccs1)N1CCN(C)CC1 (stereo not drawn)", "viability (%)": 82.3}

Shifting focus to the compound that follows.
-- ask For O=C(CCN1CCN(c2ccc(F)cc2)CC1)Nc1ccccc1F , what is its reported viability?
-- reply 91.3

---

test: reversal of MRP1-mediated doxorubicin resistance, pilot screen, H69AR cells, doxorubicin co-treatment (AID 601); conditions: H69AR cells + 2 uM doxorubicin, CellTiter-Glo, 72 h; at 10 µM; stronger effect = higher value
Consider the following compounds; for each one, report its differential viability (reversal).
Answers are plain numbers, in %.

Below: 3 compounds and their reported differential viability (reversal).
{"Compound": "Cc1cccc(NS(=O)(=O)c2cc(C(=O)OCC(=O)Nc3cc(C)on3)ccc2C)c1", "differential viability (reversal) (%)": 10.1}
{"Compound": "CCCCN(C)Cc1c(C)[nH]c2c(Cl)cccc2c1=O", "differential viability (reversal) (%)": 13.7}
{"Compound": "O=C(Nc1ccccc1)c1ccc(NCC2CCCO2)c(S(=O)(=O)N2CCOCC2)c1 (centres undefined)", "differential viability (reversal) (%)": 4.29}

Shifting focus to the compound that follows.
-- ask For Cc1cc2c(cc(C(=O)NCc3cccnc3)n2Cc2ccc(Cl)cc2)o1 , what is its reported differential viability (reversal)?
-- reply -0.245

---

test: reversal of MRP1-mediated doxorubicin resistance, pilot screen, H69AR cells, doxorubicin co-treatment (AID 601); conditions: H69AR cells + 2 uM doxorubicin, CellTiter-Glo, 72 h; measured here: viability with 2 uM doxorubicin; at 10 µM; stronger effect = lower value
Property: viability (%)
Give bare numbers, in %.

{"Compound": "COc1ccc(C(=O)CSc2nnc(C3CCCCC3)n2N)c(OC)c1", "Scale Unit": "%", "viability": 81.3}
{"Compound": "Cc1cc(C)c(NC(=O)C2CCCN2CCO)c(C)c1 (stereo not given)", "Scale Unit": "%", "viability": 90.3}
{"Compound": "CCOC(=O)c1[nH]c2ccc(Br)cc2c1NC(=O)CNC", "Scale Unit": "%", "viability": 87.5}
{"Compound": "CCCNc1nc2c(c(=O)n(C)c(=O)n2C)n1Cc1cccc(C)c1", "Scale Unit": "%", "viability": 101}

Please supply viability for each of the following items, keeping them in order.
1. CS(=O)(=O)c1ccc2nc(NC(=O)c3cccs3)sc2c1
2. CC(=O)CCc1c(C)[nH]c2ccccc2c1=O
3. CCN(CCCNC(=O)C1CCCN(S(=O)(=O)c2cnc[nH]2)C1)c1ccccc1 (stereo not given)
4. Cn1cnc(S(=O)(=O)Nc2ccc(C(F)(F)F)cc2)c1

-- reply
51.4
93
88.2
85.4

Please supply viability for each of the following items, keeping them in order.
1. CC1C(O)=C(c2nc3ccccc3[nH]2)C(=N)N1c1ccccc1 (stereo not given)
2. OCCNCC(O)Cn1ccc2ccccc21 (stereo not given)
3. N#Cc1nc(-c2ccco2)oc1NCCc1ccccc1
4. O=C1CS/C(=N\C(=O)N2c3ccccc3Sc3ccccc32)N1
5. COc1ccccc1C(=O)n1nc(-c2ccc(Cl)cc2)nc1N
6. CCOC(=O)CSc1ncnc2c1cnn2-c1ccc(C)cc1
7. COc1ccc(OC)c(C2=Nn3c(nnc3C3CCCCC3)SC2)c1

-- reply
1: 55; 2: 88.6; 3: 82.6; 4: 90.2; 5: 84.9; 6: 91.4; 7: 78

Please supply viability for each of the following items, keeping them in order.
1. COc1cc(C)c(N)cc1C(C)C
2. CSc1nc(C)cc(OCC(=O)N2CCOCC2)n1
3. Cc1ccc(-c2cc(C(F)(F)F)n3ncc(C(=O)O)c3n2)cc1
4. O=C(CN(CCc1ccccc1)C(=O)CN1C(=O)COc2ccccc21)NCc1ccco1
5. CC1(C)OC(=O)C(=CNc2ccccc2F)C(=O)O1

-- reply
1: 92.8; 2: 90.2; 3: 92.4; 4: 78; 5: 92.4

---

test: SK-BR-3 cell growth inhibitors, pilot screen, 24 h, human (AID 572); settings: SK-BR-3 viability, CellTiter-Glo luminescence, at 10 µM, stronger effect = lower value;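 also: compound exposure lasted between 18 and 24 h rather than exactly 24 h; 100% = carrier-treated control wells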
Property: viability (%)
Give bare numbers, in %.

{"Compound": "COCCOC(=O)C1=C(N)OC2=C(C(=O)CC(C)(C)C2)C1c1cccnc1 (configuration not stated)", "Property": "viability", "Scale Unit": "%", "Observed Measurement": 76}
{"Compound": "CCCOC(=O)c1ccc(-c2c(C)noc2-c2ccc(OC)cc2O)o1", "Property": "viability", "Scale Unit": "%", "Observed Measurement": 98}
{"Compound": "CCCCOc1ccc(C(=O)Nn2cnnc2)cc1", "Property": "viability", "Scale Unit": "%", "Observed Measurement": 95.5}

Please supply viability for each of the following items, keeping them in order.
1. CCOc1ccc(NC(=O)CSc2nnnn2CC(=O)O)cc1
2. C#CCNc1c(C)c(C)nc2ncnn12
3. CCOC(=O)C1CCN(Cc2c(O)ccc3ccccc23)CC1
4. CC(NCc1ccco1)C(=O)N1CCc2ccccc2C1 (configuration not stated)
5. CCSc1nc(C)nc2c1oc1ccccc12
6. CC(C)CNC(=O)C1C2C=CC(C2)C1C(=O)O (configuration not stated)
7. O=C(Nc1ccc2snnc2c1)N1CCSCC1

-- reply
1. 104
2. 104
3. 126
4. 108
5. 78.5
6. 96
7. 108

Please supply viability for each of the following items, keeping them in order.
1. COc1ccc(C(=O)N(CCN2CCOCC2)CC(=O)NC2CCCC2)cc1OC
2. O=C1CCn2nc(-c3ccc(Cl)cc3)cc2N1

-- reply
1. 83.5
2. 106

Please supply viability for each of the following items, keeping them in order.
1. CN(C(=O)c1ccccn1)c1nnc(-c2ccncc2)s1
2. COCCN1C(=O)C(=O)/C(=C(/O)c2cccc(OC)c2)C1c1ccncc1 (configuration not stated)
3. COc1ccc(OCCOC(=O)c2cccs2)cc1
4. CCOC(=O)N1CCC(N2CC34C=CC(O3)C(C(=O)O)C4C2=O)CC1 (configuration not stated)

-- reply
[118, 99, 97.5, 102]
